tgt: HLA-DR DRB3*0101 (DR52) (Homo sapiens, UniProt P01903+P79483)
procedure details: biochemical
Assay type: binding
With a cut-off of 5 µM, any IC50 strictly below it is called yes (1); any IC50 meeting it or above is called no (0).

smiles structure: CC[C@H](C)[C@H](NC(=O)[C@@H]1CCCN1C(=O)[C@H](CCC(N)=O)NC(=O)[C@@H](N)Cc1c[nH]c2ccccc12)C(=O)N1CCC[C@H]1C(=O)N[C@H](C(=O)N[C@@H](Cc1c[nH]cn1)C(=O)N[C@H](C(=O)N[C@H](C(=O)N1CCC[C@H]1C(=O)N[C@@H](CC(C)C)C(=O)N[C@@H](CO)C(=O)N[C@@H](CCC(=O)O)C(=O)N[C@@H](CC(=O)O)C(=O)N[C@@H](CCC(N)=O)C(=O)O)C(C)C)[C@@H](C)O)C(C)C
tgt: HLA-DR DRB3*0101 (DR52) (Homo sapiens, UniProt P01903+P79483)
label value: no (0)

Consider the compound CC[C@H](C)[C@H](NC(=O)[C@@H](N)CCCCN)C(=O)N[C@@H](Cc1ccccc1)C(=O)NCC(=O)N[C@@H](CO)C(=O)N[C@@H](CC(C)C)C(=O)N[C@@H](C)C(=O)N[C@@H](Cc1ccccc1)C(=O)N[C@@H](CC(C)C)C(=O)N1CCC[C@H]1C(=O)N[C@@H](CCC(=O)O)C(=O)N[C@@H](CO)C(=O)N[C@@H](Cc1ccccc1)C(=O)N[C@@H](CC(=O)O)C(=O)NCC(=O)N[C@@H](CC(=O)O)C(=O)N1CCC[C@H]1C(=O)N[C@@H](C)C(=O)O . Is its IC50 strictly less than 5 µM?
no (0)
